// provenance: patent US8420675B2

study.system: UniProtKB Q9Y5Y4
Sequence (Q9Y5Y4 whole entry): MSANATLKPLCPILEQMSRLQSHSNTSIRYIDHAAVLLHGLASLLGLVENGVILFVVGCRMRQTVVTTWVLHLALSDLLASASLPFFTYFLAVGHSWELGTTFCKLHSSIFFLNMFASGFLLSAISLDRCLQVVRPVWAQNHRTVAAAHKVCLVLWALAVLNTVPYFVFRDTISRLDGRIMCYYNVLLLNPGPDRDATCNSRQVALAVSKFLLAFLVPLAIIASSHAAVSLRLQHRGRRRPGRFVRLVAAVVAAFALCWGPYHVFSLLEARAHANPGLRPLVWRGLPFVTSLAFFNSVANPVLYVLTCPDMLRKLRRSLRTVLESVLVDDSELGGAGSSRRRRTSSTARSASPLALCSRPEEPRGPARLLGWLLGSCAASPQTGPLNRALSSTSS
test.details: Human CRTH2 Receptor Binding Assay (whole cell, [3H]ramatroban competition)
measurement.context: CHO-K1 cells expressing human CRTH2 and G-alpha16; 20 nM [3H]ramatroban; 1 hour, room temperature
pIC50: −log10 of the molar value.
Documented pIC50 across a set of molecules
measured.metric: pIC50

> print(dat)
                                    molecule  measured.metric  readout.value
 1  O=C(O)Cn1ncc2c1CCCC2NS(=O)(=O)c1ccc(-c2cccnc2)cc1 (stereo not drawn)            pIC50           6.43
 2  CN([C@@H]1CCCc2c1cnn2CC(=O)O)S(=O)(=O)c1ccc(Oc2ccccc2)c(Cl)c1 [Example 9-13a]            pIC50           8.02
 3  CN([C@@H]1CCCc2c1cnn2CC(=O)O)S(=O)(=O)c1ccc(Oc2ccc(OC(F)(F)F)cc2)c(Cl)c1 [Example 9-28a]            pIC50           7.93
 4  CS(=O)(=O)c1ccc(Oc2ncc(S(=O)(=O)NC3CCCc4c3cnn4CC(=O)O)cc2Br)cc1 (stereo not drawn)            pIC50           7.00
 5  O=C(O)Cn1ncc2c1CCCC2NS(=O)(=O)c1cnc(Oc2ccc(F)cc2)c(Br)c1 (stereo not drawn)            pIC50           7.51
 6  CN([C@@H]1CCCc2c1cnn2CC(=O)O)S(=O)(=O)c1cnc(Oc2ccccc2Cl)c(Br)c1            pIC50           8.18
 7  CN([C@@H]1CCCc2c1cnn2CC(=O)O)S(=O)(=O)c1cc(F)c(Oc2ccc(F)cc2)c(F)c1 [Example 9-39a]            pIC50           7.98
 8  C[Si](C)(C)c1cccc(-c2ccc(S(=O)(=O)N[C@@H]3CCCc4c3cnn4CC(=O)O)cc2)c1 [Example 10-26a]            pIC50           8.68
 9  CN([C@@H]1CCCc2c1cnn2CC(=O)O)S(=O)(=O)c1ccc(Oc2ccc(F)cc2)c(C(F)(F)F)c1 [Example 9-41a]            pIC50           8.12
10  CN([C@@H]1CCCc2c1cnn2CC(=O)O)S(=O)(=O)c1ccc(Oc2ccccc2F)c(Cl)c1 [Example 9-37a]            pIC50           7.83
11  CN([C@@H]1CCCc2c1cnn2CC(=O)O)S(=O)(=O)c1ccc(Oc2cc(F)ccc2F)c(Cl)c1 [Example 9-22a]            pIC50           7.62
12  O=C(O)Cn1ncc2c1CCCC2NS(=O)(=O)c1ccc(-c2ccccc2)c(F)c1 (stereo not drawn)            pIC50           6.38
13  O=C(O)Cn1ncc2c1CCCC2NS(=O)(=O)c1ccc(Oc2ccc(F)cc2)nc1 (stereo not drawn)            pIC50           6.80
14  O=C(O)Cn1ncc2c1CCCC2NS(=O)(=O)c1ccc(-c2ccccc2Cl)cc1 (stereo not drawn)            pIC50           6.59
15  CN([C@@H]1CCCc2c1cnn2CC(=O)O)S(=O)(=O)c1ccc(Oc2ccc(C#N)cc2)c(Cl)c1 [Example 9-34a]            pIC50           8.34
16  CN([C@@H]1CCCc2c1cnn2CC(=O)O)S(=O)(=O)c1ccc(Oc2ccc(Br)cc2)c(Cl)c1 [Example 9-23a]            pIC50           8.17
17  CN([C@@H]1CCCc2c1cnn2CC(=O)O)S(=O)(=O)c1cc(F)c(Oc2ccc(F)cc2)cc1Cl [Example 9-29a]            pIC50           6.82
18  CN([C@@H]1CCCc2c1cnn2CCC(=O)O)S(=O)(=O)c1cc(C(F)(F)F)cc(S(=O)(=O)c2ccc(F)cc2)c1            pIC50           8.40
19  O=C(O)Cn1ncc2c1CCCC2NS(=O)(=O)c1cnc(Oc2ccc(F)c(F)c2)c(Br)c1 (stereo not drawn) [Example 2-10a]            pIC50           6.71
20  O=C(O)Cn1ncc2c1CCCC2NS(=O)(=O)c1ccc(-c2cc(C(F)(F)F)cc(C(F)(F)F)c2)cc1 (stereo not drawn) [Example 10-24a]            pIC50           7.01
21  O=C(O)Cn1ncc2c1CCC[C@H]2NS(=O)(=O)c1cc(F)c(Oc2ccc(F)cc2)cc1Cl            pIC50           7.28
22  CN([C@@H]1CCCc2c1cnn2CC(=O)O)S(=O)(=O)c1cnc(Oc2ccc(Cl)c(F)c2)c(Br)c1 [Example 6-10a]            pIC50           7.73
23  O=C(O)Cn1ncc2c1CCCC2NS(=O)(=O)c1ccc(-c2cccc(O)c2)cc1 (stereo not drawn) [Example 10-19a]            pIC50           6.57
24  O=C(O)Cn1ncc2c1CCCC2NS(=O)(=O)c1cccc(-c2ccccc2Cl)c1 (stereo not drawn) [Example 10-12a]            pIC50           6.51
